target: MLK3 (Homo sapiens (Human)); experiment: Radiometric filter plate MLK3 assay; type: biochemical; details: 2 μM cold ATP (Km), 1 μM inactive MKK7b, twenty minute incubation; read-out: MK3 IC50
Sequence (Q16584 whole entry): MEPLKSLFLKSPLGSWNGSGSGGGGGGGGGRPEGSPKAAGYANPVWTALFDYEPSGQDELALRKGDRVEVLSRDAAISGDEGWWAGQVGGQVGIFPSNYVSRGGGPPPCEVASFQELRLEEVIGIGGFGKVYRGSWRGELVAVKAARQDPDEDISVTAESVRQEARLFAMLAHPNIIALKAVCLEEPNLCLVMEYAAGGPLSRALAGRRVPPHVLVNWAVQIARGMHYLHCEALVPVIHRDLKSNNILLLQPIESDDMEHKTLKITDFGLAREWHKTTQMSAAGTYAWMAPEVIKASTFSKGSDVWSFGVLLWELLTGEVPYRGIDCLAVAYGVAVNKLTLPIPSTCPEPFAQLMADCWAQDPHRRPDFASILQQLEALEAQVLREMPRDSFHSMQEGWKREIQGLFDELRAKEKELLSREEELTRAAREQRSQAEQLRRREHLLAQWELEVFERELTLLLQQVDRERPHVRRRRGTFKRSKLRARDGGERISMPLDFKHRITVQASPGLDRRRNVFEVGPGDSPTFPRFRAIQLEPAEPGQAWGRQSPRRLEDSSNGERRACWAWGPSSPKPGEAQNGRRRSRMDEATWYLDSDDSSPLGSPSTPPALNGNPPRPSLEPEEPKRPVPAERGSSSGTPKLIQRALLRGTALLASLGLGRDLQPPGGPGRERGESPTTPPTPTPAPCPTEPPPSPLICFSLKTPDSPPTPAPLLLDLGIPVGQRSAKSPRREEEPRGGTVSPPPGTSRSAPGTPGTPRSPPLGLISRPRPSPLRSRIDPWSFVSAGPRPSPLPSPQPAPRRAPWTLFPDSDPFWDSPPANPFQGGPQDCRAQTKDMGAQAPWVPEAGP
Readout type: IC50

INSERT INTO measurements (compound, tested_on, observed_value) VALUES
  ('CC(=O)N1CCN(Cc2ccc(-c3cnc4[nH]cc(-c5ccc6[nH]ccc6c5)c4c3)cc2)CC1C (centres unmarked) [Example 188]', 'MLK3 (Homo sapiens (Human))', '< 100 nM'),
  ('CN1CCN(Cc2ccc(-c3cnc4[nH]cc(-c5ccc6[nH]ccc6c5)c4c3)cc2)CC1=O [Example 141]', 'MLK3 (Homo sapiens (Human))', '< 100 nM'),
  ('CS(=O)(=O)Nc1ccc(-c2cnc3[nH]cc(-c4ccc5[nH]ccc5c4)c3c2)cc1 [Example 11]', 'MLK3 (Homo sapiens (Human))', '< 100 nM'),
  ('COc1cc(-c2cnc3[nH]cc(-c4ccc(CNC(C)=O)cc4)c3c2)cc(OC)c1OC [Example 159]', 'MLK3 (Homo sapiens (Human))', '< 100 nM'),
  ('COc1cc(-c2cnc3[nH]c(=O)n(C4CCc5ccccc54)c3n2)cc(OC)c1OC (centres unmarked) [Example 101]', 'MLK3 (Homo sapiens (Human))', '> 1000 nM'),
  ('Cc1cc(C)cc(-c2cnc3[nH]c(=O)n(-c4ccc5c(ccn5C)c4)c3n2)c1 [Example 43]', 'MLK3 (Homo sapiens (Human))', '> 1000 nM'),
  ('CNC(=O)c1ccc(-c2c[nH]c3ncc(-c4ccc(CN5CCN(C)CC5)cc4)cc23)cc1 [Example 165]', 'MLK3 (Homo sapiens (Human))', '< 100 nM'),
  ('CCC(=O)N1CCN(Cc2ccc(-c3cnc4[nH]cc(-c5ccc6[nH]ccc6c5)c4c3)cc2)CC1 [Example 197]', 'MLK3 (Homo sapiens (Human))', '< 100 nM'),
  ('COc1cc(-c2cnc3[nH]cc(-c4ccc(NC(C)=O)cc4)c3c2)cc(OC)c1OC [Example 16]', 'MLK3 (Homo sapiens (Human))', '< 100 nM'),
  ('COc1cc(-c2cnc3[nH]c(=O)n(-c4ccc5[nH]c(C)cc5c4)c3n2)cc(OC)c1OC [Example 72]', 'MLK3 (Homo sapiens (Human))', '< 100 nM'),
  ('COc1cc(-c2cnc3[nH]c(=O)n(-c4ccc5[nH]ccc5c4)c3n2)cc(OC)c1O [Example 62]', 'MLK3 (Homo sapiens (Human))', '< 100 nM'),
  ('COc1cc(-c2cnc3[nH]cc(-c4ccc(N)cc4)c3c2)cc(OC)c1OC [Example 15]', 'MLK3 (Homo sapiens (Human))', '< 100 nM'),
  ('O=C(CCO)N1CCN(Cc2ccc(-c3cnc4[nH]cc(-c5ccc6[nH]ccc6c5)c4c3)cc2)CC1 [Example 201]', 'MLK3 (Homo sapiens (Human))', '< 100 nM'),
  ('CC(=O)N1CCN(Cc2ccc(-c3cnc4[nH]cc(-c5ccc6[nH]ccc6c5)c4c3)cc2)CC1 [Example 140]', 'MLK3 (Homo sapiens (Human))', '> 1000 nM'),
  ('O=c1[nH]c2ncc(-c3ccncc3)nc2n1-c1ccc2[nH]ccc2c1 [Example 44]', 'MLK3 (Homo sapiens (Human))', '> 1000 nM'),
  ('COc1cc(-c2cnc3[nH]c(=O)n(CC4CC4)c3c2)cc(OC)c1OC [Example 125]', 'MLK3 (Homo sapiens (Human))', '> 1000 nM'),
  ('CN1CCN(c2cc(-c3cnc4[nH]c(=O)n(-c5ccc6[nH]ccc6c5)c4n3)ccn2)CC1 [Example 66]', 'MLK3 (Homo sapiens (Human))', '> 1000 nM'),
  ('CC(C)(C)OC(=O)N1CCN(Cc2ccc(-c3cnc4[nH]cc(-c5ccc6[nH]ccc6c5)c4c3)cc2)CC1 [Example 144]', 'MLK3 (Homo sapiens (Human))', '< 100 nM'),
  ('CN1CCN(Cc2ccc(-c3cnc4[nH]cc(-c5ccc(C(F)(F)F)cc5)c4c3)cc2)CC1 [Example 170]', 'MLK3 (Homo sapiens (Human))', '> 1000 nM'),
  ('COc1cc(-c2cnc3c(c2)C(=Cc2cccc(C(N)=O)c2)C(=O)N3)cc(OC)c1OC [Example 132]', 'MLK3 (Homo sapiens (Human))', '> 1000 nM'),
  ('O=c1[nH]c2ncc(-c3cc(F)c(O)c(F)c3)nc2n1-c1ccc2[nH]ccc2c1 [Example 59]', 'MLK3 (Homo sapiens (Human))', '< 100 nM'),
  ('COc1ccc(-n2c(=O)[nH]c3ncc(-c4ccc(O)cc4)nc32)cc1 [Example 70]', 'MLK3 (Homo sapiens (Human))', '> 1000 nM'),
  ('O=c1[nH]c2ncc(-c3ccncc3)nc2n1CC1CC1 [Example 82]', 'MLK3 (Homo sapiens (Human))', '> 1000 nM'),
  ('COc1cc(-c2cnc3[nH]c(=S)n(CC4CC4)c3n2)cc(OC)c1OC [Example 127]', 'MLK3 (Homo sapiens (Human))', '> 1000 nM'),
  ('COc1cc(-c2cnc3[nH]cc(-c4ccc(N(C)C)nc4)c3c2)cc(OC)c1OC [Example 19]', 'MLK3 (Homo sapiens (Human))', '< 100 nM'),
  ('CS(=O)(=O)N1CCN(Cc2ccc(-c3cnc4[nH]cc(-c5ccc6[nH]ccc6c5)c4c3)cc2)CC1 [Example 200]', 'MLK3 (Homo sapiens (Human))', '< 100 nM'),
  ('O=c1[nH]c2ncc(-c3cc(Cl)cc(Cl)c3)nc2n1CC1CC1 [Example 80]', 'MLK3 (Homo sapiens (Human))', '> 1000 nM'),
  ('Cc1cc2cc(-n3c(=O)[nH]c4ncc(-c5ccncc5)nc43)ccc2[nH]1 [Example 85]', 'MLK3 (Homo sapiens (Human))', '> 1000 nM'),
  ('O=c1[nH]c2ncc(-c3ccc(N4CCOCC4)cc3)nc2n1-c1ccc2scnc2c1 [Example 100]', 'MLK3 (Homo sapiens (Human))', '> 1000 nM'),
  ('COc1cc(-c2cnc3[nH]c(=O)n(-c4cnc5[nH]ccc5c4)c3n2)cc(OC)c1OC [Example 112]', 'MLK3 (Homo sapiens (Human))', '< 100 nM'),
  ('COc1cc(-c2cc3c(-c4ccc(C(N)=O)cc4)c[nH]c3[n+]([O-])c2)cc(OC)c1OC [Example 154]', 'MLK3 (Homo sapiens (Human))', '100 to 1000 nM'),
  ('COc1cc(-c2cnc3[nH]cc(-c4ccc5[nH]ccc5c4)c3c2)ccc1OCCN1CCNCC1 [Example 34]', 'MLK3 (Homo sapiens (Human))', '< 100 nM');

meta.source: patent US10485800B2
